melting point values by entry
measuredMetric: melting point

                                    molecule     testresult
 0  O=P1(NCCCl)OCCCN1CCBr (stereo unspecified)    50 to 51 °C
 1  Cc1cc(SC2=C(O)CC(CCC3CCCC3)(C3CCCC3)OC2=O)c(C(C)(C)C)cc1CO (stereo unspecified)    68 to 71 °C
 2              Cc1ccc2nc(-c3ccccc3Br)ncc2c1    70 to 71 °C
 3  CCN(C(=O)C(C)O)c1cn(-c2cccnc2)nc1Cl (stereo unspecified)  137 to 138 °C
 4                    CN(C)c1nc2cc(Br)ccn2n1  133 to 134 °C
 5  CCOC(=O)c1cnc2c(NC(=O)c3c(Cl)cccc3Cl)cccc2c1S  197 to 199 °C
 6         Cc1cc(C(=O)O)n(-c2ncc(Cl)cc2Cl)n1  227 to 228 °C
 7         CCOc1ccc2[nH]c(=O)n(C3CCOCC3)c2c1         155 °C
 8  COc1cc(Br)c(C(C)=NOCc2ccc([N+](=O)[O-])cc2)cc1O  137 to 138 °C
 9        COc1c(O)cc2c(c1Sc1ccccc1)CCN(C)CC2  161 to 162 °C
10            CCOC(=O)CN1C(=O)COc2cc(F)ccc21  90 to 91.5 °C

----------
# Lookup of reported melting point keyed by entry
measuredMetric: melting point

In [3]: df
Out[3]:
                                inputsmiles  measuredmetric     testresult
0  O=CC(=Cc1ccc(OC(=O)c2ccc(Br)cc2)cc1)C(C=O)=Cc1ccc(OC(=O)c2ccc(Br)cc2)cc1   melting point  223 to 225 °C
1  Cc1ccc(O)c(CNc2nc(NC[C@@H](C)O)nc3c2ncn3C(C)C)c1   melting point  160 to 161 °C
2  Cn1ccnc1-c1ccc(-c2cnc([C@H](Cc3ccccn3)N(C=O)c3cc4ccccc4[nH]3)n2C)cc1   melting point  218 to 222 °C
3                   CNN(Cc1ccccc1N)c1ccccc1   melting point    57 to 59 °C
4    O=C(Nc1ccccc1Cl)Nc1nc(=O)n(CC2CC2)cc1F   melting point  197 to 199 °C

----------
Property: melting point; scope: individual compounds
measuredMetric: melting point

                                   compound  measuredmetric     testresult
0  O=C1CCC(N2Cc3c(CNC(=O)NCc4ccccc4)cccc3C2=O)C(=O)N1 (stereo not given)   melting point  304 to 306 °C
1    Cc1c(CC(=O)O)c2ccccc2n1-c1ncnc2ccccc12   melting point  234 to 236 °C
2  CC1(C)CCc2c(N3CCOCC3)nc3sc4c(NCc5ccc(S(N)(=O)=O)cc5)ncnc4c3c2C1   melting point  258 to 260 °C
3  Cc1cc(S(=O)(=O)NCC(O)(CO)c2ccccc2)ccc1Cl (stereo not given)   melting point  105 to 106 °C
4  Cc1ccc(-c2c(C(=O)NCc3ccccc3)oc(=O)c3ncccc23)cc1   melting point  208 to 209 °C
5       CN(C)C=NS(=O)(=O)c1cc2cnc(C=O)cc2o1   melting point  186 to 188 °C
6        CC1(C)OC(=O)Nc2ccc(-c3ccccc3F)cc21   melting point  164 to 165 °C
7                    Cc1noc(-c2cccc(I)c2)n1   melting point  102 to 103 °C
8     Cc1c(C(=O)O)ccc(S(C)(=O)=O)c1-c1ccon1   melting point  150 to 151 °C
9      O=c1[nH][nH]c(=O)c2nc3cc(Cl)ccc3cc12   melting point  353 to 355 °C

----------
Recorded melting point, one value per entry.
measuredMetric: melting point

                                    compound     testresult
 0  CCOc1c(C23OCC(C)(C)C2(C(C)(C)C)OO3)sc2ccc(O[Si](C)(C)C(C)(C)C)cc12 (stereo unspecified)  106 to 107 °C
 1  Nc1nc(NS(=O)(=O)c2ccccc2[N+](=O)[O-])n[nH]1  255 to 256 °C
 2  O=C(Nc1ccccc1C(=O)NCCc1ncc[nH]1)c1ccc(C(F)(F)F)cc1  207 to 215 °C
 3      CCOc1cc(C=O)ccc1OCc1nc(-c2ccco2)oc1C  159 to 160 °C
 4      COc1ccc(C#Cc2ccncc2)c2c1OC1(CCCC1)C2  128 to 131 °C
 5       O=C(Nc1ccc2ccc(Br)nc2n1)c1ccc(F)cc1         228 °C
 6  CC1(C)OCC(CNc2c([N+](=O)[O-])cnc3cc(OCc4ccccc4)ccc23)O1 (stereo unspecified)  154 to 155 °C
 7  O=C(Nc1cccc2c1C(=O)N(CC(=O)N1CCC(CO)CC1)C2=O)c1ccc(Cl)s1         198 °C
 8                    CC(C)(C)c1cc(N=C=O)no1  165 to 167 °C
 9  CC(C)(CO)CCCCCCCCCCCC(O)(CC(=O)O)CC(=O)O  102 to 103 °C
10                   CC(=O)c1cccc(C(=O)O)c1O  135 to 136 °C
11  O=C(O)Cc1ccc(NC(=O)C(COc2cccc(Cl)c2)NS(=O)(=O)c2ccc(I)cc2)cc1 (racemic)  225 to 226 °C
12         CCOC(=O)Cn1c(=O)sc2cc(N)c(Cl)cc21  154 to 160 °C
13  CCOC(=O)c1ccc(CCC2CC(n3c4ccccc4c4ccccc43)c3ccccc3N2C(=O)c2ccc(OC)c(OC)c2)cc1 (stereo unspecified)  247 to 249 °C
14                 Cc1ccccc1C(=O)c1nc[nH]c1C  165 to 166 °C
15        O=C(O)Cc1ccc2c(c1)C(=O)c1ccccc1CO2  126 to 128 °C
16  CCOC(=O)C(Cc1ccccc1)NC(=O)COc1ccc(C2=NNC(=O)NC2)cc1 (stereo unspecified)  148 to 150 °C
17  Cn1c2c(cnc3c([N+](=O)[O-])cccc32)c(=O)n1C(=O)OC(C)(C)C       > 250 °C
18  CCOC(=O)C1=C(N)Nc2ccnc(OC(C)C)c2C1c1ccccc1C(F)(F)F (stereo unspecified)  173 to 175 °C
19                       CNc1cc(C(=O)O)ccc1C  167 to 169 °C
20                 COC(=O)N1CCCc2onc(OC)c2C1    68 to 70 °C

----------
Attribute: melting point
measuredMetric: melting point

>>> df
                                   compound  measuredmetric     testresult
0  CC(/C=C/c1ccsc1-c1cc2c(cc1C)C(C)(C)CCC2(C)C)=C\C(=O)O   melting point  194 to 195 °C
1    N#Cc1ccc(CN2CC=C(/C=C/c3ccccc3)CC2)cc1   melting point  155 to 157 °C
2  CC(C)(C)[Si](C)(C)Oc1ccc2c(c1)Oc1ccccc1C2=C1C2CC3CC(C2)CC1C3   melting point         137 °C
3  CC(C)(C)CC(NC(=O)c1ccc(Br)cc1)NC(=NS(=O)(=O)C(F)(F)F)Nc1cccnc1 (stereo not given)   melting point  185 to 186 °C
4  O=C(Nc1cc([N+](=O)[O-])cc([N+](=O)[O-])c1)c1cc(Br)ccc1O   melting point  258 to 260 °C

----------
Each item that follows carries a reported melting point.
measuredMetric: melting point

                                   compound     testresult
0         O=C(Nc1cccnc1)N1CCc2c1ccc(Cl)c2Cl       > 240 °C
1                             Nc1cnn2c1NCC2  177 to 179 °C
2  CCCCCCCCOC(C)c1ccc(-c2ccc(C(=O)O)cc2)cc1 (single isomer, unassigned; (+))  139 to 140 °C
3                      OCc1ccc2cccc(Br)c2c1  110 to 111 °C
4  COc1ccccc1Oc1c(NS(=O)(=O)c2ccc3ccccc3c2)nc(N2CCOCC2)nc1OCCOc1ncc(Br)cn1  178 to 182 °C
5  CC(C)(C)OC(=O)/C(=C/c1ccc2ccccc2c1)C(=O)c1ccccc1O  111 to 112 °C
6                    CCC#CCOc1cc(C=O)ccc1OC    38 to 39 °C
7  CCc1ccc(N(Cc2ccc(C(=O)N(C)C)cc2)C(=O)Nc2c(C(C)C)cccc2C(C)C)cc1  170 to 172 °C
8  Cc1nc2ccccc2cc1NC(=S)N1CCN(c2cc(F)cc(F)c2)CC1  211 to 213 °C
9  O=C(Nc1ccc(OCCN2CCCC2=O)c2ccccc12)c1cc(F)cc(N2CCOCC2)c1  172 to 173 °C
